B1: Azoarcus group I ribozyme (parent)
chain: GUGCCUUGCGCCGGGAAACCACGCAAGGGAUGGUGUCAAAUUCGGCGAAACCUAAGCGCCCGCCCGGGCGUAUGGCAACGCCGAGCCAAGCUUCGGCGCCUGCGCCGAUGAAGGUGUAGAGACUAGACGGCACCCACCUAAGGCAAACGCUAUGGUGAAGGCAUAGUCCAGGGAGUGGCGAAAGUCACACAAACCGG

# Variants of: B1
# run_description: reverse-splicing fitness (ratio to wild type); higher = more active; in vitro selection; Mg2+ level not given
Recorded reverse-splicing fitness values for a group of variants are listed next.
Simply state the number, no unit and no words.

Take a look at these entries with their results.
>>> result("C82U A111C A120C C150G C169U U176A")
0.00808
>>> result("C82U A111C A120C C169A")
0.00788

Exercise: // returns reported reverse-splicing fitness for input C82G A120C C150G C169A U176G
Solution: 0.0082

All values here come from the RNAGym collection of RNA variant scans (doi:10.1093/molbev/msab373).
